The reported numbers originate from PubChem BioAssay AID463074.

So I've got a bunch of molecules here, and I need their AC50 values.
# Test system: HMLE_sh_eGFP viability, CellTiter-Glo luminescence, 72 h
# TEST_METHOD_NOTES: cytotoxicity in HMLE control line with eGFP shRNA, dose response, counter-screen for HMLE_sh_ECad selective toxicity project, cell-based, HMLE_sh_eGFP, luminescence (AID 463074);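 note: counterscreen control line to flag general toxicity for the HMLE_sh_ECad screen; potency for loss of viability as luminescence drops below DMSO wells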
The source made the active and inactive calls.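 Rule for the calls: active = AC50 no more than tenfold above the top dose tested, or full inhibition at every dose with a flat fit (cut at about 19 µM in these data); inconclusive = flat curve fit with inhibition between 30% and 70%, or poor fit; inactive = AC50 more than tenfold above the top dose tested.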

In the examples that follow, each entry is paired with its recorded AC50.
Cc1sc(NC(=O)C2CCCCC2)c(C#N)c1-c1ccccc1 :: > 19.5 µM (inactive)
Cc1c(C(=O)N(Cc2ccccc2)Cc2cccs2)cnn1-c1ccc(Cl)cc1 :: 1.42 µM
O=S(=O)(Nc1ccc(O)c(Sc2nc3ccccc3s2)c1)c1cccc2ccccc12 :: 5.83 µM
COc1ccc2nc(C)cc(SCC(=O)N/N=C/c3ccc(O)cc3O)c2c1 :: 2.33 µM

Take each entry in turn and give its AC50.
1. Cc1cccc2[nH]c3c(N4CC=C(c5ccc(F)cc5)CC4)ncnc3c12
2. O=C(Nc1ccc(Br)c(C(F)(F)F)c1)c1ccc(C(F)(F)F)cc1

Response:
["5.01 µM", "3.03 µM"]

Take each entry in turn and give its AC50.
1. Cc1ccsc1/C=N/NC(=O)c1cc(-c2ccncc2)nc2ccccc12
2. O=c1c2ccccc2nc2n1CCc1c-2[nH]c2ccccc12
3. O=[N+]([O-])c1c(NCCCO)cc(Sc2ccc(Cl)cc2)c2nonc12
4. Fc1ccc(C(c2ccc(F)cc2)N2CCN(C/C=C/c3ccccc3)CC2)cc1
5. O=S(=O)([N-]c1nc2ccccc2nc1-[n+]1ccc(Cc2ccccc2)cc1)c1ccc(Br)s1

Response:
1: 0.257 µM; 2: > 19.5 µM (inactive); 3: 4.89 µM; 4: 7.18 µM; 5: 6.16 µM

====

# Test system: HMLE_sh_eGFP viability, CellTiter-Glo luminescence, 72 h
# TEST_METHOD_NOTES: cytotoxicity in HMLE control line with eGFP shRNA, dose response, counter-screen for HMLE_sh_ECad selective toxicity project, cell-based, HMLE_sh_eGFP, luminescence (AID 463074);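 note: counterscreen control line to flag general toxicity for the HMLE_sh_ECad screen; potency for loss of viability as luminescence drops below DMSO wells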
MEASUREMENT_KIND: AC50

In the examples that follow, each entry is paired with its recorded AC50.
CCN(CC)CCCNC(=S)N1CCN(c2nc(-c3ccccc3)cs2)CC1 :: 5.65 µM
CC(=O)Nc1ccc(C2CC(c3ccc(Cl)cc3)=NN2c2ccccc2)cc1 (stereo not given) :: 2.13 µM
COc1ccc(-c2c(C#N)c(SCC(=O)c3cc4ccccc4oc3=O)nc(C)c2C(=O)Nc2ccccc2)cc1 :: 1.5 µM

Take each entry in turn and give its AC50.
1. CCN(CC)c1ccc(/C=N/NC(=O)CCC(=O)NCc2ccccc2)c(O)c1
2. Cc1ccc(-c2cc(-c3ccccc3)nc(NN)n2)cc1

Response:
1. 8.23 µM
2. 4.19 µM

====

# Tested on: HMLE_sh_eGFP viability, CellTiter-Glo luminescence, 72 h
# TEST_METHOD_NOTES: cytotoxicity in HMLE control line with eGFP shRNA, dose response, counter-screen for HMLE_sh_ECad selective toxicity project, cell-based, HMLE_sh_eGFP, luminescence (AID 463074);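 note: counterscreen control line to flag general toxicity for the HMLE_sh_ECad screen; potency for loss of viability as luminescence drops below DMSO wells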;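 active means AC50 no more than tenfold above the top dose tested, or full inhibition at every dose with a flat fit (cut at about 19 µM in these data); inconclusive means flat curve fit with inhibition between 30% and 70%, or poor fit; inactive means AC50 more than tenfold above the top dose tested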
Write down one outcome, taken from label 1 = active, label 0 = inactive

Cc1cc(C)c2sc(N(CCCN(C)C)C(=O)c3ccc(S(=O)(=O)N4CCCc5ccccc54)cc3)nc2c1 :: label 1
Cc1ccc(-c2csc(NCCn3c(-c4ccncc4)nc4cc(C(F)(F)F)ccc43)n2)cc1 :: label 1
O=C(Nc1ccc(Cl)c(Cl)c1)Nc1ccccc1O :: label 1
O=C(CN1CCCc2ccccc21)N/N=C/c1c(O)ccc2ccccc12 :: label 1

API: the following record is the query input.
Request: Lab log entry: CC(C)(C)c1ccc(Oc2ccc(N)cc2)cc1 — outcome as called in the assay?
Response: label 1
